Provenance of the data: paper PMC9482650

Target: DLG5_1, Q8TDM6
Sequence (Q8TDM6 617-713): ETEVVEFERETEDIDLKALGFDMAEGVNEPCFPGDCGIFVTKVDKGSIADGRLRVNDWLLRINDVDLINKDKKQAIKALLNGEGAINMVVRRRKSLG
Test: holdup assay
Parameters: key: below the threshold = too weak to quantify, mostly under pKd 3.1 to 4
Details: plain residues with an end cap or a label only (N-terminal biotin on a linker: ado-ado)
READOUT NAME: pKd

Example entries begin here.
BINDER | ENDPOINT RESULT
PSVYSRSQYV [CLDN8, P56748] | below the threshold
VISSDDLTEL [CAPN6, Q9Y6Q1] | below the threshold
TFSRRPKTRV [CD226, Q15762] | below the threshold
QLKSGRDSTV [TMEM178A, Q8NBL3] | 3.83

Incoming: Reported pKd, binder RGKNRRQSIF [CDK18, Q07002] : ____
Outgoing: below the threshold

Incoming: Reported pKd, binder QKASRNESTF [POLR1D, P0DPB6] : ____
Outgoing: below the threshold

Incoming: Reported pKd, binder IGHEDLETAV [DGKI, O75912] : ____
Outgoing: below the threshold

Incoming: Reported pKd, binder TKDKVQETQI [LRRC4, Q9HBW1] : ____
Outgoing: below the threshold
